Target: Cst6 (UniProt P40535)
Sequence (P40535 whole entry): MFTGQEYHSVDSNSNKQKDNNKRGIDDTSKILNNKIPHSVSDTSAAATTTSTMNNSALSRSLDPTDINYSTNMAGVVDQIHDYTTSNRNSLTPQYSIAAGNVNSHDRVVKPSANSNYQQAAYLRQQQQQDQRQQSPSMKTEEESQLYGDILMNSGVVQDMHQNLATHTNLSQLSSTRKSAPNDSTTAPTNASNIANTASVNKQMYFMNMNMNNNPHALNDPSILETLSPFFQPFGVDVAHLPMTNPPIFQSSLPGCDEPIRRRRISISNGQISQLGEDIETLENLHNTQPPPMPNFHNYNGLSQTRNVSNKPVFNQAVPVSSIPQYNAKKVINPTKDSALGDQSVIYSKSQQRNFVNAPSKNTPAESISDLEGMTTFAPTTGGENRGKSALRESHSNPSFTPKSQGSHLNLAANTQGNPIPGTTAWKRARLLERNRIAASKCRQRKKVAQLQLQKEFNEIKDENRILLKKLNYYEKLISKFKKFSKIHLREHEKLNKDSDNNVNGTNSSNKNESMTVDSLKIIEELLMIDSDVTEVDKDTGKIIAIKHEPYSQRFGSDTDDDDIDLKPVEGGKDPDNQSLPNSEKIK
Experiment: PBM E-score (8-mer binding enrichment) (E-score (-0.5 to 0.5)); higher = stronger / more preferred TF binding
Conditions: protein concentration: 200 nM; construct: GST-DNA-binding domain
In all, about 33,000 sequences were measured (“E-score (-0.5 to 0.5)”: median about -0.016, highest 2% from about 0.31 on). Many of the other results were omitted from the sample, so the highest values are more common in it than they were.
Assign class by PBM E-score: not lower than 0.06 means fulfilled; lower than 0.06 means not fulfilled.

The examples below pair each entry with its known result.
ATGCGGCA :: fulfilled
CGATGAAC :: not fulfilled
CAGATACG :: fulfilled
AGGCGGCA :: fulfilled
ACTCGCCA :: not fulfilled

Entry ATGCGGCG : is its PBM E-score no less than 0.06? fulfilled

Follow-up entry: CCAGCTCC not fulfilled

Follow-up entry: GTGCGGAA not fulfilled

Follow-up entry: ACGCGGCT fulfilled

Follow-up entry: AGGCGGCG fulfilled

Follow-up entry: CTGCGGCA fulfilled

Follow-up entry: AGTATGTC fulfilled

Follow-up entry: GCGCGGCA fulfilled
